# assay.target: Leukotriene B4 receptor 1 (Cavia porcellus)
# measurement.description: Binding affinity against Guinea pig membrane LTB4 Receptor.
Exercise: state measured Ki for each of the molecules provided.
One number for each entry, in nM.

Record excerpt, results attached:
[
  {
    "record.smiles": "CCCc1cc(CC)c(OCCCCCC(C)(C)c2nn[nH]n2)cc1O",
    "Ki [nM]": 14
  },
  {
    "record.smiles": "CCc1cc(CC)c(OCCCCCC(C)(C)c2nn[nH]n2)cc1O",
    "Ki [nM]": 17
  }
]

[ask] Recorded Ki of `CCCCCCc1cc(CC)c(OCCCCCC(C)(C)c2nn[nH]n2)cc1O` , please.
[reply] 33

Data provenance: BindingDB's records for doi:10.1016/0960-894X(95)00340-Y
